Provide the recorded residual activity for the entries that follow.
Target: EPHB1 (human)
Test: radiometric filter-binding kinase assay
Details: compound 10.0 µM
Provide only the numeric value, understood in %.

Problem: What does the record list as residual activity for `CNc1nc(-c2ccc3c(N)n[nH]c3c2)cc(N2C[C@@H](C(=O)NC3CCCCC3)CC[C@H]2C)n1` ?
Result: 118

Problem: // repeat for Nc1cccc2c1CN(C1CCC(=O)NC1=O)C2=O (stereo not given) and report
Result: 126

Problem: Also, `O=C(NOC[C@H](O)CO)c1ccc(F)c(F)c1Nc1ccc(I)cc1Cl` please.
Result: 115

Problem: Then what about the compound `Cc1ccc(=O)n(-c2ccccc2)c1` ?
Result: 104

Problem: Another compound to look at: `CCOC(=O)c1ccc(N2NC(=O)/C(=C/c3ccc([N+](=O)[O-])o3)C2=O)cc1`
Result: 85

Problem: Query `NC1(c2ccc(-c3nc4ccn5c(=O)[nH]nc5c4cc3-c3ccccc3)cc2)CCC1` next
Result: 100

Problem: Continue with `CC(C)(C#N)c1ccc(N2C(=O)OCc3cnc4ccc(-c5cnc6ccccc6c5)cc4c32)cc1`
Result: 119

Problem: # repeat for `CCNc1nc(Nc2cc(F)c(C(=O)N3CCOCC3)cc2OC)ncc1C(F)(F)F`
Result: 90

Problem: Also, `NCC(=O)Nc1ccc(-n2nc(C(F)(F)F)cc2-c2ccc3c(ccc4ccccc43)c2)cc1` please.
Result: 67

Problem: Further, for `C=CC(=O)N1CCC[C@@H](n2nc(-c3ccc(Oc4ccccc4)cc3)c3c(N)ncnc32)C1` ?
Result: 86

These entries and their values trace back to the kinase profiling compilation of Christmann-Franck et al. (2016).
